Entries and their measured self-cleavage follow.
B1: LINE1-full (parent)
chain: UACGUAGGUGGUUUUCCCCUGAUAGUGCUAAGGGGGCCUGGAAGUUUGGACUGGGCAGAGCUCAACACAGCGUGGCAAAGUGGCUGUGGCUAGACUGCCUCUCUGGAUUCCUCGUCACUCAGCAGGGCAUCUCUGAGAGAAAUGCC

# Variants of: B1
# Test name: self-cleavage, relative activity (ratio to wild type); higher = more cleavage; in vitro, sequencing; the parent is a self-cleaving ribozyme
Property: self-cleavage

- C38U U47G: 0.78
- A30U U100A: 0.9
- U52C U119A: 1.16
- C19U U134C: 1.09
- G54U A138U: 1.01
